Molecular target: T1, scHLA-B27-mmH (engineered HLA-B*27 ectodomain in-line fusion protein) (human (HLA-B*2705, beta-2 …))
T1 construct: also called soluble HLA-B*27 fusion protein
Assay: SPR (Biacore), mAb captured, 25 C, HBST pH 7.4
Readout Label: t1/2 (min)
Response body: numeric value in min, unit text excluded.

# Binder, Data Value
measured = [
    ("H4H2559P (antibody, V domains shown) VH: QVQLVQSGAEVKKPGASVKVSCKASGYTFTDYFLHWVRQAPGQGLEWVGWINPNSGGTNFAQKFQGRVTMTRDTSISTAYMDLSRLRSDDTAVYYCARKAGYTSSWFDYWGQGTLVTVSS VL: DIVMTQSPDSLAVSLGERATINCKSSQSILYSFNNKNYLAWYQQKIGQPPMLLIYWASTRESGVPDRFSGSGSGTDFTLTISRLQAEDVAVYYCQQYYSSITFGQGTRLEIK", 19),
]

// field: t1/2; key: H4H2528P (antibody, V domains shown) VH: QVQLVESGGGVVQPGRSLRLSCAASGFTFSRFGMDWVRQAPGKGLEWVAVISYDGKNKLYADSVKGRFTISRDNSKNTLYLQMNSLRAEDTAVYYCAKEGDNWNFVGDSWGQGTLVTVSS VL: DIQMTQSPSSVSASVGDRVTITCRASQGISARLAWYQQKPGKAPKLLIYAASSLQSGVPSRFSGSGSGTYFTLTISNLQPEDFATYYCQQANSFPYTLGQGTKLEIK ; value = 77

Recorded values, source patent US20130259876A1.
